# System: Eubacterium rectale
# experiment_summary: growth AUC relative to DMSO control (median of replicates) (fraction); higher = more growth (less inhibition), active = hit call of the paper
# experimental_conditions: 20 µM; 24 h
property: growth AUC
# output: bare number, no unit

Answered cases to consult:
INSERT INTO measurements (compound, property, measured) VALUES
  ('CCN(CC)c1nc(C)cc(OP(=S)(OC)OC)n1', 'growth AUC', 1.06),
  ('CC(Oc1ccc(Cl)cc1Cl)C(=O)O (stereo unspecified)', 'growth AUC', 1.04);

Prompt: For CC1(C)CON(Cc2ccccc2Cl)C1=O , what is its reported growth AUC?
Response: 1.12

Prompt: What growth AUC value was documented for this compound, CCSC(C)CC1CC(=O)C(/C(CC)=N/OC/C=C/Cl)=C(O)C1 (mixture of isomers) ?
Response: 1.03

Prompt: # input compound: CC(=O)CC(c1ccc(Cl)cc1)c1c(O)c2ccccc2oc1=O (stereo unspecified) ; wanted: its growth AUC
Response: 0.881

Prompt: What does the record list as growth AUC for COC(C)(C)CCCC(C)C/C=C/C(C)=C/C(=O)OC(C)C (stereo unspecified) ?
Response: 0.831

Prompt: Fill in the blank: the reported growth AUC of O=[N+]([O-])c1ccc(Oc2ccc(C(F)(F)F)cc2[N+](=O)[O-])cc1 is ____.
Response: 0.88

Prompt: What growth AUC value was documented for this compound, COC(=O)Nc1nc2ccccc2[nH]1 ?
Response: 0.854

Prompt: Form field: reported growth AUC of CC1(C)C(C=C(Cl)Cl)C1C(=O)OC(C#N)c1ccc(F)c(Oc2ccccc2)c1 (mixture of isomers)
Response: 1.06

Prompt: Name the recorded growth AUC for CNC(=O)Oc1cccc2c1OC(C)(C)C2 .
Response: 1.02

Prompt: I am curious: what growth AUC value has been reported for CCOC(=O)C(C)OC(=O)c1cc(Oc2ccc(C(F)(F)F)cc2Cl)ccc1[N+](=O)[O-] (stereo unspecified) ?
Response: 1.01

----------
# Test system: Bacteroides clarus
# experiment_summary: growth AUC relative to DMSO control (median of replicates) (fraction); higher = more growth (less inhibition), active = hit call of the paper;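 active = AUC reduced over 20% with Padj below 0.05 in at least 2 of 3 replicates; inactive = otherwise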
# experimental_conditions: 20 µM; 24 h
The reply should be one of these categories: active, inactive

Worked cases, answers included:
INSERT INTO assay_data (compound, label_value) VALUES
  ('CO/N=C(/C(=O)OC)c1ccccc1CO/N=C(\C)c1cccc(C(F)(F)F)c1', 'inactive'),
  ('O=C(O)COc1nc(Cl)c(Cl)cc1Cl', 'inactive'),
  ('C=CC1(C)OC(=O)N(c2cc(Cl)cc(Cl)c2)C1=O (stereo not drawn)', 'inactive'),
  ('Oc1ccc(Cl)cc1Cc1cc(Cl)ccc1O', 'active'),
  ('COP(=S)(OC)Oc1ccc(S(C)(=O)=O)c(C)c1', 'inactive');

Prompt: Hi, sorry to bother you, what did the test record for CCOP(=O)(Sc1ccccc1)Sc1ccccc1 ?
Response: inactive

Prompt: Each compound tested received a call. Report the one for C[C@H]1[C@H](c2ccc(Cl)cc2)SC(=O)N1C(=O)NC1CCCCC1 .
Response: inactive

Prompt: Assay result, entry COC(=O)c1ccccc1S(=O)(=O)NC(=O)Nc1nc(C)cc(C)n1 — outcome?
Response: inactive

Prompt: Kindly provide the recorded test outcome for the following compound: C#CC(C)(C)NC(=O)c1cc(Cl)cc(Cl)c1
Response: inactive

Prompt: What is the recorded call for this compound in the test? N#Cc1c(Cl)cccc1Cl
Response: inactive

----------
# Tested on: Collinsella aerofaciens
# experiment_summary: growth AUC relative to DMSO control (median of replicates) (fraction); higher = more growth (less inhibition), active = hit call of the paper
# experimental_conditions: 20 µM; 24 h
growth AUC listing for selected compounds.
Lab note: write the figure by itself, no unit.

Study these solved cases before continuing.
INSERT INTO assay_data (compound, target_or_system, measured) VALUES
  ('Cc1ccc(N(SC(F)(Cl)Cl)S(=O)(=O)N(C)C)cc1', 'Collinsella aerofaciens', 0.989),
  ('O=C(O)C1(O)c2ccccc2-c2ccc(Cl)cc21 (stereo unspecified)', 'Collinsella aerofaciens', 1.03),
  ('COC(=O)c1sccc1S(=O)(=O)NC(=O)Nc1nc(C)nc(OC)n1', 'Collinsella aerofaciens', 0.898),
  ('CNC(=O)Oc1cc(C)cc(C(C)C)c1', 'Collinsella aerofaciens', 0.952),
  ('N#Cc1nn(-c2c(Cl)cc(C(F)(F)F)cc2Cl)c(N)c1S(=O)C(F)(F)F (stereo unspecified)', 'Collinsella aerofaciens', 1.04);

Prompt: Fill in: growth AUC of Clc1ccc(Cl)cc1 is ___
Response: 0.972

Prompt: Look up growth AUC: COC(=O)C(Cl)Cl
Response: 0.991

Prompt: Quick one: growth AUC of CC(C)NC(=O)N1CC(=O)N(c2cc(Cl)cc(Cl)c2)C1=O ?
Response: 1.05

Prompt: Field request: growth AUC | item: CC1(C)[C@H](C(=O)O[C@H](C#N)c2cccc(Oc3ccccc3)c2)[C@@H]1C=C(Br)Br
Response: 0.935

Prompt: Quick one: growth AUC of c1ccc2c(c1)ccc1c3ccccc3sc21 ?
Response: 0.99

Prompt: State the recorded growth AUC for this entry: CCOP(=S)(Oc1cnc(C(C)(C)C)nc1)OC(C)C (stereo unspecified)
Response: 1.03

----------
# Tested on: Fusobacterium nucleatum subsp. animalis
# experiment_summary: growth AUC relative to DMSO control (median of replicates) (fraction); higher = more growth (less inhibition), active = hit call of the paper
# experimental_conditions: 20 µM; 24 h
We begin with a simple list: items and their reported growth AUC.
Write the value as a bare number.

Prompt: Which growth AUC is listed for C/C(=N\NC(=O)Nc1cc(F)cc(F)c1)c1ncccc1C(=O)[O-].[Na+] ?
Response: 1.09

----------
Entries and their measured growth AUC follow.
# Tested on: Bifidobacterium longum subsp. longum
# experiment_summary: growth AUC relative to DMSO control (median of replicates) (fraction); higher = more growth (less inhibition), active = hit call of the paper
# experimental_conditions: 20 µM; 24 h
The answer should be written as a number, with no unit following it.

These solved cases illustrate the format of a correct answer.
INSERT INTO measurements (molecule, measured) VALUES
  ('ClC1=C(Cl)[C@]2(Cl)[C@@H]3[C@H]4C[C@H]([C@@H]5O[C@H]45)[C@@H]3[C@@]1(Cl)C2(Cl)Cl', 0.962),
  ('CCS(=O)(=O)CCSP(=O)(OC)OC', 1.01),
  ('CC(C)N(C(=O)CCl)c1ccccc1', 0.946),
  ('CCCCN(CCCC)N=O', 1.01),
  ('COP(=S)(OC)Oc1nc(Cl)c(Cl)cc1Cl', 1.01),
  ('CC1=C(C(=O)Nc2ccccc2)SCCO1', 0.956),
  ('Cc1cc(C)nc(Nc2ccccc2)n1', 1),
  ('CCNc1nc(NC(C)C)[nH]c(=O)n1', 0.962),
  ('CCOP(=O)(SC(C)CC)N1CCSC1=O (configuration not stated)', 1.02),
  ('O=NN(CCO)CCO', 0.837);

Prompt: // returns reported growth AUC for input COC(=O)N(C(=O)N1CO[C@@]2(C(=O)OC)Cc3cc(Cl)ccc3C2=N1)c1ccc(OC(F)(F)F)cc1
Response: 0.83

Prompt: What does the record list as growth AUC for O=[N+]([O-])/N=C1\NCCN1Cc1ccc(Cl)nc1 ?
Response: 0.963

Prompt: Given O=C(Nc1ccccc1)c1ccccc1I , state its recorded growth AUC.
Response: 1.03

Prompt: Item NC(=O)/N=C1/SCCN1Cc1ccc(Cl)nc1 has what recorded growth AUC?
Response: 1.03

----------
Measured growth AUC accompanies every entry in the list below.
# System: Parabacteroides merdae
# experiment_summary: growth AUC relative to DMSO control (median of replicates) (fraction); higher = more growth (less inhibition), active = hit call of the paper
# experimental_conditions: 20 µM; 24 h
Output: the number by itself.

Previously resolved entries follow.
INSERT INTO results (compound, target_or_system, measured) VALUES
  ('CCOP(=O)(NC(C)C)Oc1ccc(S(C)=O)c(C)c1 (stereo unspecified)', 'Parabacteroides merdae', 1.05),
  ('CCOC(=O)Nc1cccc(OC(=O)Nc2ccccc2)c1', 'Parabacteroides merdae', 0.949),
  ('COC(=O)c1ccccc1S(=O)(=O)NC(=O)Nc1nc(C)cc(C)n1', 'Parabacteroides merdae', 0.987),
  ('CCC(C)n1c(=O)[nH]c(C)c(Br)c1=O (stereo unspecified)', 'Parabacteroides merdae', 0.891),
  ('Oc1cc(Cl)c(Cl)cc1Cl', 'Parabacteroides merdae', 0.927);

Could you now consider this next compound?
Prompt: Quick check: growth AUC of CN(C)C(=O)Nc1cccc(C(F)(F)F)c1 ?
Response: 1

Every entry's value here was drawn from the supplement of paper PMC12669032.
